quantity-kind: melting point (°C)

| molecule | quantity-kind | units-text | measured-value |
| --- | --- | --- | --- |
| CC(=O)N(C)CCc1coc2ccc3c(c12)CCCO3 | melting point | °C | 82 |
| CCC1(CO)COC2(CC(c3ccc(Cl)cc3)SC(c3ccc(Cl)cc3)C2)OC1 (stereo not given) | melting point | °C | 138 |
| CCNC(=O)c1ccc(-c2ccc3c(c2)C(Nc2ccc(Cl)cc2)CC(C)N3C(C)=O)cc1 (stereo not given) | melting point | °C | 134 |
| CCOC(=O)C(C)Oc1ccc(OCc2ccccc2)c(F)c1 (stereo not given) | melting point | °C | 77 |
| O=C(O)c1ncn2c(C(F)F)cc(-c3ccc(C(F)(F)F)cc3)nc12 | melting point | °C | 238 |

* * *

Below is a list of entries, each paired with its recorded melting point value.
quantity-kind: melting point

| molecule | measured-value |
| --- | --- |
| COc1ccc2cc(C3CCN(C[C@H](O)COc4cccc5oc(-c6nnc(C)o6)cc45)CC3)ccc2c1 | 156 to 158 °C |
| O=C(O)c1ccc(Sc2ccccc2)cc1 | 101 to 103 °C |
| CC(C)(C)OC(=O)N1CCN(Cc2ccccc2)C[C@H]1C(c1ccccc1)c1ccccc1 | 108 to 109 °C |
| CC1=C(C(=O)OC(C)C)C(c2ccc(F)cc2Cl)N=C(c2c(F)cccc2F)N1 (stereo not given) | 155 to 158 °C |
| O=C(Nc1ccc(-c2ncc(-c3ccc(NC(=O)C4CCCCCC4)cc3)[nH]2)cc1)c1ccc([N+](=O)[O-])cc1 | 236 to 238 °C |

* * *

Below is a list of entries, each paired with its recorded melting point value.
quantity-kind: melting point

| compound | measured-value |
| --- | --- |
| CC(C)(C)OC(=O)NCCOC(=O)COc1ccc(CCCCN(C(=N)N)C(=O)c2nc(Cl)c(N)nc2N)cc1 | 80 to 82 °C |
| COC(=O)c1ncn(C2OC(COC(C)=O)C(OC(C)=O)C2OC(C)=O)n1 (stereo not given) | 107 to 109 °C |
| CCC[C@H]1C(=O)N(S(=O)(=O)c2ccc3ccccc3c2)[C@H]2CCN(S(C)(=O)=O)[C@H]12 (relative stereo) | 257 to 260 °C |
| COc1ccc(C2SC(=O)NC2C(=O)NCCO[N+](=O)[O-])cc1 (stereo not given) | 142 to 143 °C |
| COC(=O)CCn1c(=O)[nH][nH]c1=O | 150 to 153 °C |
| CC1=Nc2ccccc2CC(c2ccsc2C)N1C (stereo not given) | 91 to 92 °C |
| CCOc1ccc(Nc2ncc(C(=O)O)c(=O)[nH]2)cc1 | 250 to 252 °C |
| CNC(=O)c1cnc(Cl)c(Cl)c1 | 134 to 138 °C |
| O=C1CCC(N2Cc3c(OCc4ccc(CN(CCC(F)(F)F)CCC(F)(F)F)cc4)cccc3C2=O)C(=O)N1 (stereo not given) | 107 to 109 °C |
| CCCCCCCCCCNC(=O)CC#N | 78.5 to 80 °C |

* * *

Below is a list of entries, each paired with its recorded melting point value.
quantity-kind: melting point

| compound | measured-value |
| --- | --- |
| C[C@H](NC(=O)CCC(=O)NO)C(=O)N1CCC[C@H]1C(=O)O | 195 to 196 °C |
| CNc1ccc(C2CC(=O)N(C)C2C(O)c2ccc(-c3ccccc3)s2)cc1 (stereo not given) | 212 °C |
| Cc1c(Br)cc2[nH]c(=O)c(=O)[nH]c2c1[N+](=O)[O-] | > 340 °C |
| COc1cccc2c1Sc1ccc(C(C)C(N)=O)cc1C(=O)C2 (stereo not given) | 210 to 211 °C |
| CC(=O)Oc1cccc(C(=O)NCCO[N+](=O)[O-])c1 | 89 to 91 °C |
| O=C(CSc1ccc(C(F)(F)F)cn1)C12CC3CC(CC(C3)C1)C2 | 141 to 142 °C |
| Cc1cc(C#N)cc(C(=O)Nc2ccc(F)c(F)c2)n1 | 170 °C |
| CC(=O)Nc1ccc(OCc2nc3ccccc3s2)cc1C | 179 to 182 °C |
| O=C(CCC1CCN(Cc2ccccc2)CC1)c1cc2c3c(c1)CCN3C(=O)CC2 | 103 to 104 °C |
| CCCCC(O)(c1cn(C(c2ccccc2)(c2ccccc2)c2ccccc2)cn1)c1cc(Cl)cc2c1OC(C)(C)OC2 (stereo not given) | 124 °C |
| CN(C)CCOc1ccc2cc3ncc(C#N)c(Nc4ccc(Cl)cc4Cl)c3cc2c1 | 115 to 117 °C |
| N#CC(C#N)CC(=O)c1ccc(Cl)s1 | 155 to 158 °C |
| CCOC(=O)c1cc([N+](=O)[O-])cn1Cc1ccccc1 | 73 °C |
| Nc1nc(OCC2CCCCC2)c2c(n1)=NC(=O)N=2 | 297 °C |
| Cn1nc(C(F)(F)F)cc1Oc1cc(OC(F)F)cnn1 | 86 to 88 °C |
| O=C(O)CCc1cn(Cc2ccc(C(=O)NCc3ccc(C(F)(F)F)cc3)cc2)nc1-c1ccccc1 | 151 to 152 °C |
| CC(C)CC(=O)Nc1cccc(-c2ccnc3c(-c4cccc(N(C)C)c4)cnn23)c1 | 182 to 184 °C |
| COc1c(O)cccc1C=O | 116 °C |
| NC(=O)C1CN(Cc2nc(-c3ccccc3)c(-c3ccccc3)o2)CCN1CC(=O)Nc1c(Cl)cc(N)cc1Cl (stereo not given) | 137 to 139 °C |
| COc1cc(OC)nc(NC(=O)NS(=O)(=O)Cc2ccccc2-c2nnc(SC)o2)n1 | 174 to 177 °C |

* * *

Below is a list of entries, each paired with its recorded melting point value.
quantity-kind: melting point

| compound | measured-value |
| --- | --- |
| CCCCCCCCCCCCc1nnn(C(C(=O)Nc2c(C(C)C)cccc2C(C)C)c2ccccc2)n1 (centres undefined) | 93 to 95 °C |
| O=c1cnc2c([N+](=O)[O-])c(Cl)c(Cl)cc2[nH]1 | 330 to 332 °C |
| COc1cc(C(O)CN(c2nc3ccccc3[nH]2)C(C)CCn2cnc3ccccc32)ccc1OCc1ccccc1 (centres undefined) | 170 to 180 °C |
| O=C1CC(c2cccc(-n3ccnn3)c2)=Nc2ccc(C#Cc3ccc(F)cc3)cc2N1 | 246 to 248 °C |
| OC1CCc2c(F)cc(F)cc2C1 (centres undefined) | 85 °C |
| Cc1cc(=O)oc2cc(NCc3ccccc3)ccc12 | 174 to 176 °C |
| NCc1ccc(-n2c(-c3cccnc3N)nc3ccc(-c4ccccc4)nc32)cc1 | 215 to 218 °C |
| CC(C#CC1CC(Oc2ccc(C(F)(F)F)cc2)C1)N(O)C(N)=O (single isomer, unassigned; (+)) | 113 to 114 °C |
| COC(=O)[C@@H]1CCN1S(=O)(=O)c1ccc(Cl)c(COc2cccc3c(-n4ccnc4)cc(C)nc23)c1Cl | 80 °C |

* * *

Below is a list of entries, each paired with its recorded melting point value.
quantity-kind: melting point

| compound | measured-value |
| --- | --- |
| CCOC(=O)C1=C(COCCNS(=O)(=O)NC(=O)c2ccco2)NC(C)=C(C(=O)OC)C1c1ccccc1Cl (stereo not given) | 138 °C |
| CNC(=S)C1(c2cccnc2)CCCCC1=CCO (stereo not given) | 172 to 173 °C |
| CCc1cn(C2CC(OC(C)=O)C(CNC(=O)Cc3ccccc3NC(C)=O)O2)c(=O)[nH]c1=O (stereo not given) | 143 to 145 °C |
| C=C(C)C(=O)Nc1ccc(Nc2ccccc2)cc1 | 101 to 103 °C |
| CCC1N=C(c2ccccc2Cl)c2cc(CC(=O)OC)sc2NC1=O (stereo not given) | 202 to 204 °C |

* * *

quantity-kind: melting point

| compound | measured-value |
| --- | --- |
| COc1ccc(CCc2oc3cccc(O)c3c2C)cc1 | 72 to 75 °C |
| CCOc1nn(CCOc2c(CC)cccc2CC(=O)O)cc1C(=O)NCc1ccc(Cl)cc1Cl | 129 to 131 °C |
| Cc1ccc2c(c1)CC(n1ccnc1C(N)=O)C2=O (stereo unspecified) | 196 °C |
| O=C(O)c1c[nH]c2cc(Cl)c([N+](=O)[O-])cc2c1=O | 294 to 297 °C |
| O=c1[nH]c2cc(C(F)(F)F)c(C(F)(F)F)cc2[nH]c1=O | > 250 °C |
| Clc1ccc2oc(C3CCNCC3)cc2c1 | 77 to 78 °C |
| Cn1cncc1C(O)(c1ccc(Cl)cc1)c1ccc2nc(C#Cc3ccccc3)cc(-c3cccc(Cl)c3)c2c1 (stereo unspecified) | 154 °C |
| Cc1ccc(C(=O)O)cc1OCc1ccccc1 | 159 to 161 °C |
| COC(=O)c1cc(C(=O)OC)c2c(Cl)cc(Cl)cc2n1 | 116 to 118 °C |
| CC1(C)CN=C(NN=C(C=Cc2ccc(OC(F)(F)F)cc2)C=Cc2ccc(OC(F)(F)F)cc2)NC1 | 170 to 172 °C |
| Cc1cc(NC(=O)NC(=O)c2c(Cl)cccc2Cl)ncc1-c1ccccc1 | 210 to 214 °C |
| CCC(NS(=O)(=O)c1ccc(Cl)c(Cl)c1)c1cnc(Oc2ccc(F)cc2)n1CC (stereo unspecified) | 138 °C |
| O=C(NC[C@H]1CN(c2ccc3c(c2)CCCc2cnoc2-3)C(=O)O1)C(F)F | 145 to 180 °C |
| CCCc1c(OCCCCCc2c(Cl)ccc(OC)c2OC)ccc(C(=O)OC)c1O | 53 to 55 °C |
| CC(C)c1nc2c(N)nc3ccccc3c2s1 | 163 to 165 °C |
| CCCCn1c(=O)[nH]c2c(Cl)cc(OC)c(OC)c2c1=N | 155 to 157 °C |
| O=C(Cc1ccccc1C1CCCC1)N[C@H]1CCN(CCc2ccccc2)C1 | 117 to 119 °C |
| Fc1cccc(N=C2SCCN2C(=S)Nc2cccc(F)c2)c1 | 108 to 109 °C |
| COc1ccc2c(c1)c(Cc1cc(=O)n(C3CCCCC3)[nH]1)c(C)n2Cc1ccccc1 | 102 to 105 °C |
| COCCCNC(=O)c1[nH]c(C)c(-c2nc3ccc(C(=O)c4ccccc4)cc3[nH]2)c1C | 256 to 258 °C |
| CN(C(=O)Cc1csc(N)n1)c1ccc(Cl)cc1 | 148 to 150 °C |
